# System: Hsp90 C-terminal peptide / TPR2A (Hop) interaction, human
# assay_name: qHTS Assay for Disrupters of an Hsp90 Co-Chaperone Interaction; for activity change, negative = inhibition: % is set by controls: 0 for no effect and ±100 for the full control effect
# study_conditions: AlphaScreen TPR2A-His6 binding biotin-Hsp90 C-terminal peptide; series mostly up to 57 µM
The campaign covered roughly 71,000 compounds. About 310 (0.44%) were called active. Inconclusive results (about 5%) are left out. The entries come from a sample that favours actives as a whole.
parameter_measured: activity change, negative = inhibition

Sample answers from the record:
Oc1cc2c(cc1O)CN(C(=S)NCCc1ccc(Cl)cc1)CCC2 = inactive
CCOC(=O)CSc1nnc(CNc2ccc(F)cc2)o1 = inactive
C[C@@H]1C[C@H]2[C@@H]3C[C@H](F)C4=CC(=O)C=C[C@@]4(C)[C@]3(F)[C@H](O)C[C@]2(C)[C@@]1(O)C(=O)CO = inactive
CC(C)NC(=O)N1CCCC2(CCN(C(=O)c3cccn3C)CC2)C1 = inactive
C[C@]1(O)CC[C@H]2[C@H]3CC=C4N5CCN=C5CC[C@@]4(C)[C@H]3CC[C@@]21C = -4.96% [at 11 µM] (inactive)
C(=C\c1ccccc1)/CSc1nnc(-c2cccnc2)n1Cc1ccco1 = inactive
C=CCNC(=O)CCCOc1cccc(C)c1 = -6.77% [at 11 µM] (inactive)
CCNc1ncc2ncc(=O)n(CCc3ccccc3)c2n1 = inactive

Ask: What does the data say about its activity change, negative = inhibition? Entry: COc1ccc(C[C@H](N)C(=O)N[C@@H]2[C@H](O)[C@H](n3cnc4c(N(C)C)ncnc43)O[C@@H]2CO)cc1
Reply: inactive

Ask: Try Cc1n[nH]c(C)c1S(=O)(=O)N1CCCC(C(=O)NCC2COc3ccccc3O2)C1 (stereo not given) next.
Reply: inactive

====

# Tested on: Hsp90 C-terminal peptide / TPR2A (Hop) interaction, human
# assay_name: qHTS Assay for Disrupters of an Hsp90 Co-Chaperone Interaction; for activity change, negative = inhibition: % is set by controls: 0 for no effect and ±100 for the full control effect
# study_conditions: AlphaScreen TPR2A-His6 binding biotin-Hsp90 C-terminal peptide; series mostly up to 57 µM
Screen size: about 71,000 compounds; about 310 (0.44%) were called active. Not shown: some 5% with an inconclusive outcome. This is one part of a sample in which actives are shown more often than they occur.
parameter_measured: activity change, negative = inhibition

Sample answers from the record:
CC1=C(C(=O)Nc2ccc(Cl)cc2)C(c2ccco2)NC(=O)N1 (stereo unspecified) = inactive
CN(C)c1ccc(-c2nc(NCCN3CCOCC3)c3ccccc3n2)cc1 = inactive
O=c1[nH]c(=O)n([C@H]2C[C@H](O)[C@H](CO)O2)cc1Br = inactive
CC1(CCC(=O)OC2CCCCC2)OCCO1 = -2.62% [at 11 µM] (inactive)
c1ccc2c(Nc3ccncc3)nc(-c3ccc4c(c3)OCO4)nc2c1 = inactive

Ask: Query activity change, negative = inhibition on Hsp90 C-terminal peptide / TPR2A (Hop) interaction, human for COC(=O)c1c(-c2ccc(C)cc2)csc1N
Reply: inactive

====

# System: Hsp90 C-terminal peptide / TPR2A (Hop) interaction, human
# assay_name: qHTS Assay for Disrupters of an Hsp90 Co-Chaperone Interaction; note: potency is the fitted concentration of half-maximal effect
# study_conditions: AlphaScreen TPR2A-His6 binding biotin-Hsp90 C-terminal peptide; series mostly up to 57 µM
# Protocol: NIH Chemical Genomics Center [NCGC] NIH Molecular Libraries Screening Centers Network [MLSCN] […] The assay was performed on 1536-well white plate (untreated solid bottom). […] Plates were read on EnVision (PerkinElmer, Boston, MA).TPR2A-His6 was produced using a bacteria expression system and purified using a well developed method (Ghosh et al., 2000). […]
Screen size: about 71,000 compounds; about 310 (0.44%) were called active. Another 5% or so got no clear call; they are omitted. Many of the other results were omitted from the sample, so actives are more common in it than they were.
parameter_measured: Potency

Ask: What does the data say about its Potency? Entry: Oc1c(C(c2ccccn2)N2CCOCC2)ccc2cccnc12 (stereo unspecified)
Reply: 2 µM (active)

Ask: Try ON=C1/C(=N\O)CC2(C/C1=N/O)OCCO2 next.
Reply: 12.6 µM (active)

Ask: Try COc1cc(C2C(C#N)=C(N)Oc3n[nH]c(-c4ccccn4)c32)cc(OC)c1OC (stereo unspecified) next.
Reply: 25.1 µM (active)

Ask: Try COc1ccccc1CCn1c(=O)c(-c2cn(C)c3ccccc23)nc2cncnc21 next.
Reply: 0.631 µM [activator] (active)

Ask: Try CC(C)C[C@@H](CC(=O)N[C@@H](CCC(=O)O)CC(=O)O)NC(=O)[C@@H]1CCCC[C@H]1NC(=O)C[C@@H](NC(=O)C[C@H](Cc1c[nH]c2ccccc12)NC(=O)[C@@H]1CCCC[C@H]1N)C(C)C next.
Reply: 5.01 µM (active)

Ask: Try Cc1cccc2cc(C#N)c(N3CCCC3)nc12 next.
Reply: 31.6 µM [activator] (active)

Numbers sourced from PubChem BioAssay AID595.
